Tgt: human plasma renin (Homo sapiens, UniProt P00797)
Construct: from tissue; host or cells: human plasma
Sequence (P00797 67-406): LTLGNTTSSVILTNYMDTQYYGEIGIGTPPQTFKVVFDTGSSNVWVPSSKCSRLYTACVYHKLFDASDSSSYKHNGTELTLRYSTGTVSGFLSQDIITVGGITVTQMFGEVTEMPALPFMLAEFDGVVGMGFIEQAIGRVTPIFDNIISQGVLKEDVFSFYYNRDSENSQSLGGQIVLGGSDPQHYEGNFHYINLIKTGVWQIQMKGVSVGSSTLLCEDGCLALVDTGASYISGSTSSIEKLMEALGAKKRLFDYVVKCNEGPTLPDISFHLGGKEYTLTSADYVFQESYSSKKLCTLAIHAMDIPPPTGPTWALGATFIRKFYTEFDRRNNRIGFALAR
Assay Explanation: In vitro inhibition of human plasma renin (Boger et al., J. Med. Chem. 1985, 28, 1779)
Type: biochemical
Settings: human plasma renin assay
# reported pIC50; entries follow
The value called pIC50 is obtained by taking minus log10 of the concentration in mol/L.

Request: Item under review: Boc-Phe-His-(ACHP)-5(S)-Ethyl-1-Methyl-2-Pyrrolidinone [Example 3L] . Reported pIC50?
Response: 8.28

Request: // returns reported pIC50 for input Boc-Phe-His-(ACHP)-1-Cyclohexyl-2-Pyrrolidinone [Example 3B]
Response: 8.00

Request: Can you share its pIC50? I mean this substance: Boc-Phe-His-(ACHP)-1-Methyl-5(R)-Vinyl-2-Pyrrolidinone [Example 3G]
Response: 8.60

Request: Form field: reported pIC50 of Boc-Phe-His-(ACHP)-1-Methyl-5(S)-Vinyl-2-Pyrrolidinone [Example 3F]
Response: 8.10

Request: Look up pIC50 for this substance: Boc-Phe-His-(ACHP)-5(R)-Ethyl-1-Methyl-2-Pyrrolidinone [Example 3K]
Response: 8.07

Request: Which measured pIC50 value corresponds to Boc-Phe-His-(ACHP)-1-(2-Benzyloxyethyl-2-Pyrrolidinone [Example 3E] ?
Response: 7.62

The reported numbers originate from patent US5006511A.
